Data origin, for the record: patent US20030166571A1

Exercise: state measured pIC50 for each of the binders provided.
- test target: T1, human ORL-1 receptor (opioid receptor like 1) (human, UniProt P41146 1-370)
- T1 construct: whole, on cells; Assays were run on membranes of CHO cells transfected with human ORL-1; also called opiate receptor like 1; nociceptin receptor
- T1 sequence (P41146 whole entry): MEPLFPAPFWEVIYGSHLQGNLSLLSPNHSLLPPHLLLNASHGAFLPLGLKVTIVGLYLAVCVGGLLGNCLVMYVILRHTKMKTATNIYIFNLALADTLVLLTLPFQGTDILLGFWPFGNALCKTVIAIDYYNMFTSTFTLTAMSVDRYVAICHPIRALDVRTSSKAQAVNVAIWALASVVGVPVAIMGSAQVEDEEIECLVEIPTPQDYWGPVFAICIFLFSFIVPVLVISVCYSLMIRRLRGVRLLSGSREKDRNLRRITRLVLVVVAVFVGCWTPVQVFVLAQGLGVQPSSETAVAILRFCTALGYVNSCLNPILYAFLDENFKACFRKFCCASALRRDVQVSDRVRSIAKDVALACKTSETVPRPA
- assay overview: [3H]nociceptin displacement at ORL1
Square brackets hold non-standard residues; d marks the D form. * marks the point of attachment. Heptanoyl = CCCCCCC(=O)*; Hexanoyl = CCCCCC(=O)*; Propionyl = CCC(=O)*; Butyryl = CCCC(=O)*
Recall that pIC50 is obtained by taking minus log10 of the concentration measured in molar.

What the record says about Hexanoyl-RYYRWR-NH2 (SMILES CCCCCC(=O)N[C@@H](CCCNC(=N)N)C(=O)N[C@@H](Cc1ccc(O)cc1)C(=O)N[C@@H](Cc1ccc(O)cc1)C(=O)N[C@@H](CCCNC(=N)N)C(=O)N[C@@H](Cc1c[nH]c2ccccc12)C(=O)N[C@@H](CCCNC(=N)N)C(N)=O) [IV-17-C Hexanoyl-RYYRWR-NH2] : pIC50 is 8.59

What the record says about Ac-R[dY]Y[dR]WR-NH2 (It is not clear from the print which residues the (D) marks belong to, nor whether the last Arg is missing on purpose) [IV-12-B Ac-RY(D)YR(D)WNH2] : pIC50 is 5.94

What the record says about Butyryl-RYYRWR-NH2 (SMILES CCCC(=O)N[C@@H](CCCNC(=N)N)C(=O)N[C@@H](Cc1ccc(O)cc1)C(=O)N[C@@H](Cc1ccc(O)cc1)C(=O)N[C@@H](CCCNC(=N)N)C(=O)N[C@@H](Cc1c[nH]c2ccccc12)C(=O)N[C@@H](CCCNC(=N)N)C(N)=O) [IV-15-A Butryl-RYYRWR-NH2] : pIC50 is 8.37

What the record says about Ac-RYYRWR-NH2 (also called parent peptide) [Ac-RYYRWR-NH2] : pIC50 is 9.14

What the record says about Heptanoyl-RYYRWR-NH2 (SMILES CCCCCCC(=O)N[C@@H](CCCNC(=N)N)C(=O)N[C@@H](Cc1ccc(O)cc1)C(=O)N[C@@H](Cc1ccc(O)cc1)C(=O)N[C@@H](CCCNC(=N)N)C(=O)N[C@@H](Cc1c[nH]c2ccccc12)C(=O)N[C@@H](CCCNC(=N)N)C(N)=O, see recheck) [IV-18-C Heptanoyl-RYYRWR-NH2] : pIC50 is 8.59

What the record says about Propionyl-RYYRWR-NH2 (SMILES CCC(=O)N[C@@H](CCCNC(=N)N)C(=O)N[C@@H](Cc1ccc(O)cc1)C(=O)N[C@@H](Cc1ccc(O)cc1)C(=O)N[C@@H](CCCNC(=N)N)C(=O)N[C@@H](Cc1c[nH]c2ccccc12)C(=O)N[C@@H](CCCNC(=N)N)C(N)=O, see recheck) [IV-16-C Propionyl-RYYRWR-NH2] : pIC50 is 8.92
